Answer each item with its documented CC50.
# test: Cytotoxicity against HEp-2 cells
# Format: toxicity, cell-based
# test conditions: human

Dear colleague, I am looking for the recorded CC50 of the following compound: CC1=C[C@@](C)(O)[C@H](/C(C)=C/C=C/C=C/C=C/C=C/C2(C)C3OC(=O)C2(C)C(=O)C3C)O[C@H]1C (some centres undefined) > 100 µM

Dear colleague, I am looking for the recorded CC50 of the following compound: CC1=C[C@](C)(O)[C@H](C)O[C@@H]1/C(C)=C/C=C/C=C/C=C/C=C/C1(C)C2OC(=O)C1(C)C(=O)C2C (some centres undefined) > 100 µM

Dear colleague, I am looking for the recorded CC50 of the following compound: CC1=C[C@@](C)(O)[C@@H](/C(C)=C/C=C/C=C/C=C/C=C/C2(C)C3OC(=O)C2(C)C(=O)C3C)O[C@H]1C (some centres undefined) > 100 µM

Dear colleague, I am looking for the recorded CC50 of the following compound: `NC(=O)c1ncn([C@@H]2O[C@H](CO)[C@@H](O)[C@H]2O)n1` > 100 µM

Attribution: ChEMBL document CHEMBL5634164
